# Tested on: human nasopharyngeal carcinoma cells (SUNE1)
# TEST DESCRIPTION: MTT cell viability assay, SUNE1
# Type: cell-based
# COND: MTT, 37° C., 48 h; mean ± SD
OBSERVED PROPERTY: IC50 (µM)
Give bare numbers, in µM.

[
  {
    "COMPOUND": "C1=Cc2nc1c(-c1ccccc1)c1ccc([n-]1)c(-c1ccccc1)c1nc(c(-c3ccccc3)c3ccc([n-]3)c2-c2ccccc2)C=C1.CC(=O)C=C(C)[O-].[Yb+3]",
    "IC50 [µM]": 16.2
  }
]

Now take the following compound into account.
Q. Entry N.N.[Cl][Pt][Cl] [Cisplatin, cis-diamminedichloroplatinum[II], reference compound] has what IC50?
A. 11.8

###

# Test system: human coloadenocarcinoma cells (HCT-8)
# TEST DESCRIPTION: MTT cell viability assay, HCT-8
# Assay type: cell-based
# COND: MTT, 37° C., 48 h; mean ± SD
OBSERVED PROPERTY: IC50
Report the figure along with its unit, number first.

[
  {
    "MOLECULE": "N.N.[Cl][Pt][Cl] [Cisplatin, cis-diamminedichloroplatinum[II], reference compound]",
    "SYSTEM NAME": "human coloadenocarcinoma cells (HCT-8)",
    "IC50": "26.1 µM"
  }
]

Q. For the molecule C1=Cc2nc1c(-c1ccccc1)c1ccc([n-]1)c(-c1ccccc1)c1nc(c(-c3ccccc3)c3ccc([n-]3)c2-c2ccccc2)C=C1.CC(=O)C=C(C)[O-].[Yb+3] , what IC50 is on record?
A. 15.2 µM
